# Tested on: E. cloacae 218R Class C β-lactamase
# METHOD NOTES: microbe, parasite or virus in culture
# APPLIED CONDITIONS: 218R Class C β-lactamase
Numbered stars: 1 amine (or outer) side, 2 acyl side, 3 side chain; on linkers, the order of the positions; unused ones are H or OH. Square brackets hold non-standard residues; d marks the D form. Peptide text beside a SMILES is read from it. X1 = CC(C)[C@H](C)N(CC(=O)[*:2])[*:1]; Nspe = C[C@H](NCC(=O)O)c1ccccc1; Nlys = NCCCCNCC(=O)O
ENDPOINT: MIC (µg/mL)
Kindly answer with a numeric value in µg/mL, unit omitted.

Ask | Determine its reported MIC: CC(C)[C@H](C)N(CC(=O)N(CCCCN)CC(=O)N(CC(=O)N(CC(=O)N(CCCCN)CC(=O)N(CC(=O)N(CC(=O)N(CCCCN)CC(=O)N(CC(=O)N(CC(N)=O)[C@@H](C)c1ccccc1)[C@@H](C)c1ccccc1)[C@@H](C)C(C)C)[C@@H](C)C(C)C)[C@@H](C)c1ccccc1)[C@@H](C)c1ccccc1)C(=O)CN(C(=O)CNCCCCN)[C@@H](C)C(C)C [1-Nsdp2,3,8,9, H-(NLys-Nsdp-Nsdp-NLys-Nspe-Nspe)2-NH2] (H-[Nlys][X1][X1][Nlys][Nspe][Nspe][Nlys][X1][X1][Nlys][Nspe][Nspe]-NH2)
Reply | 8

---

# Tested on: P. aeruginosa H1030 (MDR)
# METHOD NOTES: microbe, parasite or virus in culture
# APPLIED CONDITIONS: P. aeruginosa H1030 (MDR)
# Experimental: The MICs of test agents were measured using a modified broth micro-dilution method in Difco Mueller Hinton medium, on a panel of bacterial pathogens that were both susceptible and resistant to common antibiotics (S1 File). Briefly, serial dilutions were performed in 0.01% acetic acid containing 0.2% bovine serum albumin at 10-fold the desired final concentration. […]
Numbered stars: 1 amine (or outer) side, 2 acyl side, 3 side chain; on linkers, the order of the positions; unused ones are H or OH. Square brackets hold non-standard residues; d marks the D form. Peptide text beside a SMILES is read from it. X1 = CC(C)[C@H](C)N(CC(=O)[*:2])[*:1]; Nspe = C[C@H](NCC(=O)O)c1ccccc1; Nphe = O=C(O)CNCc1ccccc1; Nlys = NCCCCNCC(=O)O
For each record, write down the corresponding MIC.
Output spec: scalar in µg/mL, unitless text.

Ask | Specify measured MIC for CC(C)[C@H](C)N(CC(=O)N(CCCCN)CC(=O)N(CC(=O)N(CC(=O)N(CCCCN)CC(=O)N(CC(=O)N(CC(=O)N(CCCCN)CC(=O)N(CC(=O)N(CC(N)=O)[C@@H](C)c1ccccc1)[C@@H](C)c1ccccc1)[C@@H](C)C(C)C)[C@@H](C)C(C)C)[C@@H](C)c1ccccc1)[C@@H](C)c1ccccc1)C(=O)CN(C(=O)CNCCCCN)[C@@H](C)C(C)C [1-Nsdp2,3,8,9, H-(NLys-Nsdp-Nsdp-NLys-Nspe-Nspe)2-NH2] (H-[Nlys][X1][X1][Nlys][Nspe][Nspe][Nlys][X1][X1][Nlys][Nspe][Nspe]-NH2) .
Reply | 8

Ask | Supply reported MIC belonging to this compound: C[C@@H](c1ccccc1)N(CC(N)=O)C(=O)CN(Cc1ccccc1)C(=O)CN(CCCCN)C(=O)CN(C(=O)CN(Cc1ccccc1)C(=O)CN(CCCCN)C(=O)CN(C(=O)CN(Cc1ccccc1)C(=O)CN(CCCCN)C(=O)CN(C(=O)CN(Cc1ccccc1)C(=O)CNCCCCN)[C@@H](C)c1ccccc1)[C@@H](C)c1ccccc1)[C@@H](C)c1ccccc1 [1-Npm2,5,8,11, H-(NLys-Npm-Nspe)4-NH2] (H-[Nlys][Nphe][Nspe][Nlys][Nphe][Nspe][Nlys][Nphe][Nspe][Nlys][Nphe][Nspe]-NH2)
Reply | 16

Data origin, for the record: paper PMC4744035
